The values you see were collected from patent US9920057B2.

test.system: PDE2A (Homo sapiens, UniProt O00408)
Sequence (O00408 whole entry): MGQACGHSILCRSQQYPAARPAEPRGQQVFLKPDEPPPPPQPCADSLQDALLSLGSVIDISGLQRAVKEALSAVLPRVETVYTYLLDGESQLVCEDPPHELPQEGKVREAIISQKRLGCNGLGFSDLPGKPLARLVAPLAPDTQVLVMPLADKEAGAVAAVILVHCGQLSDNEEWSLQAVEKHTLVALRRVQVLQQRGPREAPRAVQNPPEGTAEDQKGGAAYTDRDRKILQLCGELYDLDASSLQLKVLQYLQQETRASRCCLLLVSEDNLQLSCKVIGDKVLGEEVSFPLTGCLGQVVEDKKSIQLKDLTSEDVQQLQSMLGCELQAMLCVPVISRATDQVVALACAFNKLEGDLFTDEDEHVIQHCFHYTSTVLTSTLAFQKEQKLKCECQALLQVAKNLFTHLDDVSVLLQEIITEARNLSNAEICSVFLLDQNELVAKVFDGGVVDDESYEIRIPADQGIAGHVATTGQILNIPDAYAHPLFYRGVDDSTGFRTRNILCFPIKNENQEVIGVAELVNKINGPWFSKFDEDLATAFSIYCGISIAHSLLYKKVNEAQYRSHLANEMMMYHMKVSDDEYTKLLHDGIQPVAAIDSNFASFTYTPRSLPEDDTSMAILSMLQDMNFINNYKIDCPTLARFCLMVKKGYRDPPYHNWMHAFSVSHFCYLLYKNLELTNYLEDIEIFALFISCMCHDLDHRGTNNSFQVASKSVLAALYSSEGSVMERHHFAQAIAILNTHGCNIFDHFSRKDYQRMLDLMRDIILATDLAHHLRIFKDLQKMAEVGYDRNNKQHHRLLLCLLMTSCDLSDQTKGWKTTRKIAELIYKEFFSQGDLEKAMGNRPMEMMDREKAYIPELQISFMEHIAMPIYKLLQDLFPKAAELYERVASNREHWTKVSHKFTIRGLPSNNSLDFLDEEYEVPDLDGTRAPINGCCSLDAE
pIC50: −log10 of the molar value.
This section presents compounds with their documented pIC50 values.

CN1CC(=O)N2[C@H](c3ccc4c(c3)OCO4)c3[nH]c4ccccc4c3C[C@@H]2C1=O    < 5.00

Please examine the following record next.
Recorded pIC50 for [2H]C1([2H])Oc2ccc([C@@H]3c4[nH]c5ccccc5c4C[C@@H]4C(=O)N(N)CC(=O)N34)cc2O1 on PDE2A (Homo sapiens, UniProt O00408) was < 5.00

----------
test.system: PDE1A (Homo sapiens, UniProt P54750)
Sequence (P54750 whole entry): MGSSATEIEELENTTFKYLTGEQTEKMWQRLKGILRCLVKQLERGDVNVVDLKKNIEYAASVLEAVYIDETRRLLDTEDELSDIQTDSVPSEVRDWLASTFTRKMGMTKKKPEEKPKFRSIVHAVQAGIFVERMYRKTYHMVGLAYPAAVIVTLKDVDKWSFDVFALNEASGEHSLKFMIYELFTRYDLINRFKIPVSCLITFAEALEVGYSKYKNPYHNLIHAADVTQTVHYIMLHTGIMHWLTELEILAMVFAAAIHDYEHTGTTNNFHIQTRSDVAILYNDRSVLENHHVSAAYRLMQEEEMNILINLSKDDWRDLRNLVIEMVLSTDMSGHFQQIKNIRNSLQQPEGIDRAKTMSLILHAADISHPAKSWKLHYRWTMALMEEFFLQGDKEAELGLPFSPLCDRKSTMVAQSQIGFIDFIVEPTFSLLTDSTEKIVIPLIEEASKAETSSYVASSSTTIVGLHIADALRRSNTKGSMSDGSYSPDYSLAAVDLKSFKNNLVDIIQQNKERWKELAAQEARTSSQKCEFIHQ
pIC50: −log10 of the molar value.
Reported pIC50 by item:

[2H]C1([2H])Oc2ccc([C@@H]3c4[nH]c5ccccc5c4C[C@@H]4C(=O)N(N)CC(=O)N34)cc2O1 [DDCI-01]    < 5.00

In the following, a different compound is considered.
So the reported pIC50 for CN1CC(=O)N2[C@H](c3ccc4c(c3)OCO4)c3[nH]c4ccccc4c3C[C@@H]2C1=O [Cialis] , on PDE1A (Homo sapiens, UniProt P54750), turned out to be < 5.00
